Record: IC50 reported on Dihydrofolate reductase (Rattus norvegicus).
Field format: number, assumed µM, no unit text.

CCOc1cc(Cc2cnc(N)nc2N)cc2c1NC(C)(C)C=C2C | 250
CSc1cc(Cc2cnc(N)nc2N)cc2c1NC(C)(C)C=C2C | 118
CC1=CC(C)(C)Nc2c(C)cc(Cc3cnc(N)nc3N)cc21 | 500

**Q:** Find IC50 for COc1cc(Cc2cnc(N)nc2N)cc2c1NC(C)(CF)C(F)=C2C (stereo not given) on Dihydrofolate reductase (Rattus norvegicus) and write it down.
**A:** 233

**Q:** Supply IC50 measured with Dihydrofolate reductase (Rattus norvegicus) for `CCc1cc(Cc2cnc(N)nc2N)cc2c1NC(C)(C)C=C2C` .
**A:** 174

**Q:** Using Dihydrofolate reductase (Rattus norvegicus) as the test system, report measured IC50 of CC1CC(C)(C)Nc2ccc(Cc3cnc(N)nc3N)cc21 (stereo not given) .
**A:** 300

###

# IC50 measurements, system: Dihydrofolate reductase (Rattus norvegicus, UniProt Q920D2)
Express your answer in µM, writing the number without its unit.

Solved cases below.
COc1cc(Cc2cnc(N)nc2N)cc2c1NC(C)(C)C=C2C | 300
CC1=CC(C)(C)Nc2c1cc(Cc1cnc(N)nc1N)cc2[S+](C)[O-] (stereo unspecified) | 56
COc1cc(Cc2cnc(N)nc2N)cc2c1NCCC2C (stereo unspecified) | 33
COc1cc(Cc2cnc(N)nc2N)cc2c(C)ccnc12 | 20
COc1cc(Cc2cnc(N)nc2N)cc2c1NC(C)(C)CC2C (stereo unspecified) | 430

Next compound, please.
**Q:** Determine its reported IC50: COc1cc(Cc2cnc(N)nc2N)cc2c1NC(C)(CF)C=C2CF (stereo unspecified)
**A:** 230

###

Biological target: Dihydrofolate reductase (Rattus norvegicus)
Sequence (Q920D2 whole entry): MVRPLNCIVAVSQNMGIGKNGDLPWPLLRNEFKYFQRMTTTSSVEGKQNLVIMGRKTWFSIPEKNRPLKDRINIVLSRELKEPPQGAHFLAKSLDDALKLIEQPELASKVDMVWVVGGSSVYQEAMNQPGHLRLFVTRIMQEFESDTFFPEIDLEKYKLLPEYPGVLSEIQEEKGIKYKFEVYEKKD
Assay: Inhibitory activity against Dihydrofolate reductase in rat liver
Type: functional, tissue-based
Conditions: read-out: I50
observed property: IC50 (µM)
Report as a plain number; the unit µM is understood.

**Q:** Please give measured IC50 of the following entry: COc1cc(Cc2cnc(N)nc2N)cc2c1N(C)CCC2C (stereo unspecified)
**A:** 250

###

test system: Streptococcus pyogenes; test: Comparative in vitro antibacterial activity of compound with trimethoprim against Streptococcus pyogenes CN10; assay type: functional
# MIC per record follows
Give your result in µg/mL as a bare value.

COc1cc(Cc2cnc(N)nc2N)cc2c1NC(C)(C)CC2C (configuration not stated) | 1
COc1cc(Cc2cnc(N)nc2N)cc2c1NC(C)(CF)C=C2CF (configuration not stated) | 0.1
COc1cc(Cc2cnc(N)nc2N)cc2c1NC(C)(CF)C(F)=C2C (configuration not stated) | 0.03
CC1=CC(C)(C)Nc2c1cc(Cc1cnc(N)nc1N)c1cccnc21 | 0.03
COc1cc(Cc2cnc(N)nc2N)cc2c1NC(C)(C)C=C2C | 0.1

**Q:** Read off the recorded MIC for `CC1=CC(C)(C)Nc2c(Cl)cc(Cc3cnc(N)nc3N)cc21`
**A:** 10

**Q:** Determine from records and report MIC for `CSc1cc(Cc2cnc(N)nc2N)cc2c1NC(C)(C)C=C2C`
**A:** 0.1
